Assign apparent KD of MS2 coat protein to each entry below.
- Test system: MS2 coat protein
- method: apparent KD of MS2 coat protein; designed switch direction (-1 OFF switch, 1 ON switch): -1; higher = weaker reporter binding
- protocol conditions: Eterna round: R95; input ligand: microRNA oligo, concentration not stated
Please reply with the bare figure in nM and do not write the unit itself.

## Task # query: apparent KD of MS2 coat protein of entry AGUAACUAUCACGAAAGUGAUAGUUACAAACAAGUGGAAACAUGAGGAUCACCCAUGUCCUCAUUUGCUCGUCUUAU [Sensor 3 - 6] (puzzle: Sensor v3, turn-off variant 2)
## Result 556

## Task # query: apparent KD of MS2 coat protein of entry UUUUAGAGAGGAUAUAUUAUGUGAAACAUGAGGAUCACCCAUGUAAUAUAAUGGAUGUAAAUAGAAGGCUCAUUUA [Mat - Exclusion 5 - JL mod - D22] (puzzle: Exclusion 5)
## Result 28.4

## Task # query: apparent KD of MS2 coat protein of entry AGAAGUAGUAGCCGAUCCUACAUGAGGAUCACCCAUGUAGCUAGACGUGCACGCGAUGCUCGUCAGACUACCAGAUG [salish99_TOv1_r3_031] (puzzle: Sensor v3, turn-off variant 1)
## Result 120

## Task # query: apparent KD of MS2 coat protein of entry GGUACUAUCACCUGAGUGGUAGUGCCAUAAGCUUGUGAUACAUGAGGAUCACCCAUGUCCUCAUUUGCUCGUCUUAU [JL-sv3-2.27 JL mod] (puzzle: Sensor v3, turn-off variant 2)
## Result 394

## Task # query: apparent KD of MS2 coat protein of entry CCUCGACAUGAGGAUCACCCAUGUCAGGAUAUUGUGUUUCGGGUUUUUUACCUUUAGGCAAGAAGGGAUGUGUG [LRO-Excl1-16] (puzzle: Exclusion 1)
## Result 15.8

* * *

- Test system: K4 kissing-loop RNA reporter;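 further: bound reporter read as fluorescence of individual clusters on recovered sequencing chips by microscopy, with normalized cluster intensities fitted with a binding model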
- method: apparent KD of K4 kissing-loop reporter; higher = weaker reporter binding
- protocol conditions: Eterna round: R107; input ligand: arginine 13.2 mM
Label False if apparent KD of K4 kissing-loop reporter falls below 200 nM; label True in every other case.

## Task hey, is apparent KD of K4 kissing-loop reporter for this one >= 200 nM? GCAGUCCGGACGGCCGCCACUAUCCGUAAAGUGAUGUUUUACGAACAAUCGAUUGCAUAUCAGAAUAGGACCGGGUCCGUCGACC [theeternabot_sameState_KL_Trp_B_15]
## Result False

## Task hey, is apparent KD of K4 kissing-loop reporter for this one >= 200 nM? UCUCAGGAGUGAUGUUCCGUAGGUGGAAGGAAGGAUAUCUAAUGGCAGAGAAGGUCCAUCCUUGCUCGUAUCAGUGCCGGGAAGC [theeternabot_exclusion_KL_FMN_A_13]
## Result True

## Task hey, is apparent KD of K4 kissing-loop reporter for this one >= 200 nM? UGACAUUGCUCAGAUACCAGACUUGAGGAUCACCCAAGUGCCAAACGUACAAUAAUAAAAGUCCCUUGGCAGCUGAGCAAUGUCU [TheoBX 14]
## Result False

## Task hey, is apparent KD of K4 kissing-loop reporter for this one >= 200 nM? "UGCAUGCUUAGAGUGAUGUUCUAAGAUGAUACCAGUGCUUUUUUGCACCCUUGGCAGCGUCUGAUUGCAUGCACGUCGAAAGACG"
## Result True

## Task hey, is apparent KD of K4 kissing-loop reporter for this one >= 200 nM? UUUAUAUAGUCGGCCGCCACUGAUUUUUUUAUAUGUUUAUGUUUAUACGAGUGAUGUUCGAUAUACAGGACCGGGACUUUGGUUA [JR_SSTryptoB_Sub019]
## Result True

## Task hey, is apparent KD of K4 kissing-loop reporter for this one >= 200 nM? AGAUAGGGCUGAAGGAGCGUCGGAGAAGAGAAGAAGGAAUCCAGUGAUGUUGGAUAGAUCCGACAGGUAGGUCGCAGUUUUAUGA [hbob_SS_Arginine_B_2t139]
## Result False

* * *

Assign apparent KD of MS2 coat protein to each entry below.
- System: MS2 coat protein
- method: apparent KD of MS2 coat protein, switch OFF state (with FMN for OFF switches, without FMN for ON switches); designed switch direction (-1 OFF switch, 1 ON switch): -1; higher = weaker reporter binding
- protocol conditions: FMN input: 0 or 200 uM; Eterna round: R93 (includes R88 designs)
Please reply with the bare figure in nM and do not write the unit itself.

## Task # query: apparent KD of MS2 coat protein of entry AACAAGACAGGAUAUACAUGAGGAUCACCCAUGUCACAAUAAAGCAGCGUAACACAAAGUAGAAGGGUCAUGGA [Ruby 9]
## Result 71.5

## Task # query: apparent KD of MS2 coat protein of entry AAAAGGUGAGGAUAUUCGAAAAUAAAAUAAAAUAAAAUAAAGAAGAAGGCACAUGAGGAUCACCCAUGUAAUAA [LROPPY Exclusion 4 - v02_deltaG=2.94 break up the As]
## Result 24.9

## Task # query: apparent KD of MS2 coat protein of entry AAAAAGGCAGGAUAUACGAGUCAAAGAAAAGACAAAAAGGGACAUGAGGAUCACCCAUGUAGAAGGGCCAAAAA [Fiskers exclusion D2 62% 4]
## Result 193

## Task # query: apparent KD of MS2 coat protein of entry GCUCAGUAAGGAUAUUAAUGGCGCUGUUAUUCAGCACCAGCUGAGAAGGUACAUGAGGAUCACCCAUGUGGUGA [Berion]
## Result 216

## Task # query: apparent KD of MS2 coat protein of entry GGUUUGCAAGGAUAUACAUGAGGAUCACCCAUGUGAGAGAAAAAAGUGAGAAAGAAAAGUAGAAGGUGCGGACG [salish99-ex3-121]
## Result 62.7

## Task # query: apparent KD of MS2 coat protein of entry GGAAAACAUGAGGAUCACCCAUGUGAGGAUAUGCAGGAUAUAGAAGGAAAAAAAAAAAGCAGAAGGUACGAAGG [salish99-ex1-17]
## Result 36.3

* * *

Assign apparent KD of MS2 coat protein to each entry below.
- Tested on: MS2 coat protein
- method: apparent KD of MS2 coat protein; designed switch direction (-1 OFF switch, 1 ON switch): -1; higher = weaker reporter binding
- protocol conditions: input ligand: FMN 200 uM
Please reply with the bare figure in µM and do not write the unit itself.

## Task # query: apparent KD of MS2 coat protein of entry GUAACAUGCUGGUGAUCAUACAUGAGGAUCACCCAUGUAACAAGCUUUUUGUUCGUCUUAAUUUAAUUGAUUACUAG [Stov1/8-B2] (Eterna round: R97, puzzle: Sensor, turn-off variant 1)
## Result 0.202

## Task # query: apparent KD of MS2 coat protein of entry GGAUUUCGAGGAUAUACACGCAAAUAGGUGUAUCCUUUAGCACAUGAGGAUCACCCAUGUAGAAGGCGGGUACU [Eternabot (L1) Solution 19] (Eterna round: R97, puzzle: Exclusion 2)
## Result 0.136

## Task # query: apparent KD of MS2 coat protein of entry AGGAAUCUAGGAUAUAUAUGAAACGAUCCAGAUUCAAGGAAACAUGAGGAUCACCCAUGUAGAAGGAGAGAAAA [EX2 A.17] (Eterna round: R97, puzzle: Exclusion 2)
## Result 0.0234

## Task # query: apparent KD of MS2 coat protein of entry GAAAAGCAUGUGAGGAUAUGCACACCGGACCGGUGGUAGAAGGCACAUGAGGAUCACCCAUGUGACCAAGAAUA [BmEX4 A.4] (Eterna round: R97, puzzle: Brourd's mod of Exclusion 4)
## Result 0.0197

## Task # query: apparent KD of MS2 coat protein of entry AGCCACAGAGGAUAUACAUACAUCCAGUGGUUAAGAAUACAACAUGAGGAUCACCCAUGUAGAAGGCUGUGGCA [Omei Ex2 BD B10] (Eterna round: R97, puzzle: Exclusion 2)
## Result 0.394

## Task # query: apparent KD of MS2 coat protein of entry UUCGUGCAGCUUUGCUGUACGCGUACAUGAGGAUCACCCAUGUAGGAUAUGGUAGGCUUUGCUUACUAGAAGGAUAUUGUGAUC [JL EXNG3 1.32] (Eterna round: R96, puzzle: Exclusion NG 3)
## Result 0.256

## Task # query: apparent KD of MS2 coat protein of entry UCCUUACUGGUCAGGAUAUACAUUCGCGAGUGGGUGUAGAAGGGACAUGAGGAUCACCCAUGUACGUUACAUCC [alecazam54f] (Eterna round: R97, puzzle: Brourd's mod of Exclusion 4)
## Result 0.0183

## Task # query: apparent KD of MS2 coat protein of entry CCGGUUGGCGCAGGAUAUACAUGAGGAUCACCCAUGUUCAUGAGGAUCACCCAUGAGUUUUUGUUGUAGAAGGGUGGCCCGGCC [A second MS2 with the first and last base exchanged (less A)] (Eterna round: R96, puzzle: Exclusion NG 2)
## Result 0.0238

## Task # query: apparent KD of MS2 coat protein of entry CUUAUGUGAGGAUAUGGUGUUGGCCACAGGAAAAAGAUCCUCCAGAAGGCACAUGAGGAUCACCCAUGUAGUGA [Jolly's Folly 30 - Jieux - Exclusion 4] (Eterna round: R96, puzzle: Exclusion 4)
## Result 0.22

## Task # query: apparent KD of MS2 coat protein of entry CGUCUGUAAGGAUAUGGUUACAUAGACAUGAGGAUCACCCAUGUGACGUGGGACUAGUGAUUAGAAGGUACGAACG [EX5 #66] (Eterna round: R97, puzzle: Exclusion 5)
## Result 0.077

## Task # query: apparent KD of MS2 coat protein of entry GUGAUCUAUCAUGUAAUAAACAUGAGGAUCACCCAUGUAGACAAGUUUUUUGCUCGUCUUAUAAUAAGAUAGAUCAC [Antenna 15 - Jieux - Sensor, turn-off variant 1] (Eterna round: R97, puzzle: Sensor, turn-off variant 1)
## Result 0.0163

## Task # query: apparent KD of MS2 coat protein of entry ACAUGUUGUCCAUGAUAUUACAUGAGGAUCACCCAUGUUAUUGUGAUUUUGAUGUGUAAGUUUGUUGCUCGUCUUAU [JR_STOV1_Sub063] (Eterna round: R97, puzzle: Sensor, turn-off variant 1)
## Result 0.0298

## Task # query: apparent KD of MS2 coat protein of entry GGACAACAUGAGGAUCACCCAUGUCAGGAUAUGACGGCGUCGGCGAAAGCGGAGGCGGUCAGAAGGGACGGUAA [AK-MS2ROC-r4-exclusion1-10.1] (Eterna round: R97, puzzle: Exclusion 1)
## Result 0.115

## Task # query: apparent KD of MS2 coat protein of entry AACCUAAGGCAAAGCUUUAGGUGUACAUGAGGAUCACCCAUGUAGGAUAUGGUAGGCAAAGCUUACCAGAAGGACAUUAUGAUA [Mat - Exclusion NG 3 - Mod of JL - D53] (Eterna round: R96, puzzle: Exclusion NG 3)
## Result 0.0821

## Task # query: apparent KD of MS2 coat protein of entry GUCAGCUCGUCAGGAUAUACAUGCGUGCUUCGGCACGAAUUUAAGAUCACAUGAGGAUCACCCAUGUAGAAGGGACGAGCUGAC [ENG2/3-B1] (Eterna round: R96, puzzle: Exclusion NG 2)
## Result 0.741

## Task # query: apparent KD of MS2 coat protein of entry GUUCACGUAGGAUAUACGGUUGGUGUGCGCGAAGGCCUUUGACAUGAGGAUCACCCAUGUAGAAGGACGAUGAA [EX2 C.24] (Eterna round: R97, puzzle: Exclusion 2)
## Result 0.0321

## Task # query: apparent KD of MS2 coat protein of entry GGGCCCGGAGGAUAUACAAUGGGCCCGGGAAAUUGGGCCCUACAUGAGGAUCACCCAUGUAGAAGGCCGGGCCC [-40.2, -38.1 kcal A 24%, 5c,0] (Eterna round: R97, puzzle: Exclusion 2)
## Result 0.0161

## Task # query: apparent KD of MS2 coat protein of entry UUUCUUGGGCAAGGAUAUCCUGUGCGGUUCCGGCUCGUGUCUGUCACAUGAGGAUCACCCAUGUGGGAGAAGGUGCCUGCGGUU [Design 83] (Eterna round: R96, puzzle: Exclusion NG 2)
## Result 0.0154
